Source of measurements: paper PMC10397247

Target: T1, 4H906-bA
T1 chain: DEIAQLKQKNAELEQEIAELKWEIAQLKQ
Assay: two-hybrid library CCNG1;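 note: natural log of median RNA to DNA barcode read ratio; higher means stronger binding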
readoutLabel: interaction score
Enter a number only.

Answered cases to consult:
DEIAQLKQEIAELKQEIAELEWKNAQLKQ [4H584-bA]	-0.288
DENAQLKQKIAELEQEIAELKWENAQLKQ [4H1804-bA]	-0.55

Form field: reported interaction score of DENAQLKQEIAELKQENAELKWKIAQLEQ [4H1629-bA]
-0.968

Return reported interaction score; argument: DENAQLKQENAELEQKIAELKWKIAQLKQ [4H1710-bA]
0.904

Suppose we examine the binder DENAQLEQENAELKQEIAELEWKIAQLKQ [4H1222-bA] ; what interaction score value has been reported?
-0.403

# get_value(readout='interaction score', item= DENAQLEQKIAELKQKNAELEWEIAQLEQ [4H1393-bA] )
-1.12

# input binder: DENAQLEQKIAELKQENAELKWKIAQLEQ [4H1373-bA] ; wanted: its interaction score
-1.26

Recorded interaction score for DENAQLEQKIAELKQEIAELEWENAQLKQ [4H1348-bA] , please?
-0.721

Looking for the measured interaction score of DEIAQLKQEIAELEQKNAELKWEIAQLKQ [4H570-bA] , can you help?
0.277

Quick one: interaction score of DKNAQLKQEIAELEQKIAELKWENAQLKQ [4H3628-bA] ?
-0.866
